meta.source: patent US5326774A

Assay: in vivo
Settings: mouse, po
MEASUREMENT_KIND: LD50 at 72 h (mg/kg)
Report only the number, with the unit mg/kg understood.

What value of LD50 at 72 h has been recorded for this entry: Cc1noc(COc2ccccc2OCC(O)CNC(C)(C)C)n1.Cl (stereo not shown) 600

====

Test: in vivo
Conditions: mouse, iv
MEASUREMENT_KIND: LD50 at 72 h (mg/kg)
Report only the number, with the unit mg/kg understood.

>>> df
                                   molecule  result_value
0  Cc1noc(COc2ccccc2OCC(O)CNC(C)(C)C)n1.Cl (centres unmarked) [Compound of the invention]          72.5

Field: next molecule
What value of LD50 at 72 h has been recorded for this entry: CC(C)NCC(O)COc1cccc2[nH]ccc12 (centres unmarked) [Pindolol, pindolol, reference compound] 29
